# inhibition at 1 µM per entry
- subjectOfTest: HCV-NS5b (Hepatitis C virus genotype 1b)
- Construct: The cloned fragment was missing the C terminus 21 amino acid residues; (His)6 (C); made in house; host or cells: XL-1 cells (E. coli)
- experimentSummary: HCV-NS5b Enzyme Assay
- Format: biochemical
- details: 1 μM test compound; incorporation of [3H]-UTP, 37° C., 2 hours
- Description: The coding sequence of NS5b protein was cloned by PCR from pFKI389luc/NS3-3′/ET as described by Lohmann, V., et al. (1999) Science 285, 110-113 using the following primers: • […] (SEQ. ID. NO. 1) • […] (SEQ. ID. NO. 2) […] The polymerase activity was assayed by measuring incorporation of radiolabeled UTP into a RNA product using a biotinylated, heteropolymeric template, which includes a portion of the HCV genome. […] Incorporation of radioactivity was determined by scintillation counting (cpm). […]
readoutType: inhibition at 1 µM (%)

# compound, subjectOfTest, readoutType, measValue
measured = [
    ("O=C(O)c1ccc2c(C3CCCCC3)c(-c3ccc4nc(-c5cccc([N+](=O)[O-])c5)ccc4c3)n(CC(=O)N3CCOCC3)c2c1 [Compound 256]", "HCV-NS5b (Hepatitis C virus genotype 1b)", "inhibition at 1 µM", 98.1),
    ("N#Cc1cccc(-c2ccc(-c3c(C4CCCCC4)c4ccc(C(=O)O)cc4n3CC(=O)N3CCOCC3)cc2)c1 [Compound 306]", "HCV-NS5b (Hepatitis C virus genotype 1b)", "inhibition at 1 µM", 97.8),
    ("O=C(O)c1ccc2c(C3CCCCC3)c(-c3ccc4nc(-c5cccc(Br)c5)ccc4c3)n(CC(=O)N3CCOCC3)c2c1 [Compound 262]", "HCV-NS5b (Hepatitis C virus genotype 1b)", "inhibition at 1 µM", 97.3),
    ("Cc1nc(C)c(-c2ccc3cc(-c4c(C5CCCCC5)c5ccc(C(=O)O)cc5n4CC(=O)N4CCOCC4)cc(Br)c3n2)s1 [Compound 282]", "HCV-NS5b (Hepatitis C virus genotype 1b)", "inhibition at 1 µM", 87.8),
    ("Cc1nc(C)c(-c2ccc3cc(-c4c(C5CCCCC5)c5ccc(C(=O)O)cc5n4CC(=O)N4CCOCC4)ccc3n2)s1 [Compound 210]", "HCV-NS5b (Hepatitis C virus genotype 1b)", "inhibition at 1 µM", 97.3),
    ("COc1ccc(-c2ccc(Cl)cc2)c(-c2ccc3cc(-c4c(C5CCCCC5)c5ccc(C(=O)O)cc5n4CC(=O)N(C)C)ccc3n2)c1 [Compound 206]", "HCV-NS5b (Hepatitis C virus genotype 1b)", "inhibition at 1 µM", 99),
    ("COc1ccc(-c2ccc3cc(-c4c(C5CCCCC5)c5ccc(C(=O)O)cc5n4CC(=O)N4CCOCC4)ccc3n2)cc1F [Compound 273]", "HCV-NS5b (Hepatitis C virus genotype 1b)", "inhibition at 1 µM", 99.4),
    ("Nc1cccc(-c2ccc3cc(-c4c(C5CCCCC5)c5ccc(C(=O)O)cc5n4CC(=O)N4CCOCC4)ccc3n2)c1 [Compound 264]", "HCV-NS5b (Hepatitis C virus genotype 1b)", "inhibition at 1 µM", 93),
    ("COc1ncccc1-c1ccc(-c2c(C3CCCCC3)c3ccc(C(=O)O)cc3n2CC(=O)N2CCOCC2)cc1 [Compound 304]", "HCV-NS5b (Hepatitis C virus genotype 1b)", "inhibition at 1 µM", 98.5),
    ("Cc1nc(C)c(-c2ccc3cc(-c4c(C5CCCCC5)c5ccc(C(=O)O)cc5n4CC(=O)NCCN4CCOCC4)ccc3n2)s1 [Compound 237]", "HCV-NS5b (Hepatitis C virus genotype 1b)", "inhibition at 1 µM", 94.7),
    ("Cc1ccc(-c2ccc3cc(-c4c(C5CCCCC5)c5ccc(C(=O)O)cc5n4CC(=O)N4CCOCC4)ccc3n2)cc1C [Compound 250]", "HCV-NS5b (Hepatitis C virus genotype 1b)", "inhibition at 1 µM", 99.9),
    ("N#Cc1ccc(-c2ccc(-c3c(C4CCCCC4)c4ccc(C(=O)O)cc4n3CC(=O)N3CCOCC3)cc2)cc1 [Compound 307]", "HCV-NS5b (Hepatitis C virus genotype 1b)", "inhibition at 1 µM", 97.4),
    ("Cc1ccc(-c2ccc3cc(-c4c(C5CCCCC5)c5ccc(C(=O)O)cc5n4CC(=O)N4CCOCC4)ccc3n2)cc1 [Compound 252]", "HCV-NS5b (Hepatitis C virus genotype 1b)", "inhibition at 1 µM", 95),
    ("O=C(O)c1ccc2c(C3CCCCC3)c(-c3ccc4nc(-c5cccc(OC(F)(F)F)c5)ccc4c3)n(CC(=O)N3CCOCC3)c2c1 [Compound 246]", "HCV-NS5b (Hepatitis C virus genotype 1b)", "inhibition at 1 µM", 96.9),
    ("Cc1nc(C)c(C2CCc3cc(-c4c(C5CCCCC5)c5ccc(C(=O)O)cc5n4CC(=O)N4CCOCC4)ccc3N2)s1 (centres unmarked) [Compound 323]", "HCV-NS5b (Hepatitis C virus genotype 1b)", "inhibition at 1 µM", 97.6),
    ("Cc1nc(C)c(-c2nc3ccc(-c4cc5ccc(C(=O)O)cc5n4CC(=O)N4CCCCC4)cc3cc2C2CCCCC2)s1 [Compound 216]", "HCV-NS5b (Hepatitis C virus genotype 1b)", "inhibition at 1 µM", 98.8),
    ("Cc1nc(C)c(-c2ccc3cc(-c4c(C5CCCCC5)c5ccc(-c6nnn[nH]6)cc5n4CC(=O)N4CCOCC4)ccc3n2)s1 [Compound 244]", "HCV-NS5b (Hepatitis C virus genotype 1b)", "inhibition at 1 µM", 97.2),
    ("O=C(O)c1ccc2c(C3CCCCC3)c(-c3ccc4nc(-c5ccccc5)cnc4c3)n(CC(=O)N3CCOCC3)c2c1 [Compound 330]", "HCV-NS5b (Hepatitis C virus genotype 1b)", "inhibition at 1 µM", 96.8),
    ("Cc1nc(C)c(-c2ccc3cc(-c4c(C5CCCCC5)c5ccc(C(=O)O)cc5n4CC(=O)Nc4nn[nH]n4)ccc3n2)s1 [Compound 239]", "HCV-NS5b (Hepatitis C virus genotype 1b)", "inhibition at 1 µM", 96.9),
    ("COc1ccc(-c2ccc(Cl)cc2)c(-c2ccc3cc(-c4[nH]c5cc(C(=O)O)ccc5c4C4CCCCC4)ccc3n2)c1 [Compound 200]", "HCV-NS5b (Hepatitis C virus genotype 1b)", "inhibition at 1 µM", 96.2),
    ("NC(=O)c1cc(-c2ccc3cc(-c4c(C5CCCCC5)c5ccc(C(=O)O)cc5n4CC(=O)N4CCOCC4)ccc3n2)ccc1O [Compound 207]", "HCV-NS5b (Hepatitis C virus genotype 1b)", "inhibition at 1 µM", 95.7),
    ("O=C(O)c1ccc2c(C3CCCCC3)c(-c3ccc(-c4cccc([N+](=O)[O-])c4)cc3)n(CC(=O)N3CCOCC3)c2c1 [Compound 310]", "HCV-NS5b (Hepatitis C virus genotype 1b)", "inhibition at 1 µM", 99.6),
    ("Cc1nccnc1-c1ccc2cc(-c3c(C4CCCCC4)c4ccc(C(=O)O)cc4n3CC(=O)N3CCOCC3)ccc2n1 [Compound 268]", "HCV-NS5b (Hepatitis C virus genotype 1b)", "inhibition at 1 µM", 96.1),
    ("Cc1ccsc1-c1ccc2cc(-c3c(C4CCCCC4)c4ccc(C(=O)O)cc4n3CC(=O)N3CCOCC3)ccc2n1 [Compound 229]", "HCV-NS5b (Hepatitis C virus genotype 1b)", "inhibition at 1 µM", 96.5),
    ("CCN(CC)C1CCN(C(=O)Cn2c(-c3ccc4nc(-c5sc(C)nc5C)ccc4c3)c(C3CCCCC3)c3ccc(C(=O)O)cc32)CC1 [Compound 275]", "HCV-NS5b (Hepatitis C virus genotype 1b)", "inhibition at 1 µM", 98.9),
    ("Cc1nc(C)c(-c2ccc3cc(-c4[nH]c5c(C)c(C(=O)O)ccc5c4C4CCCCC4)ccc3n2)s1 [Compound 334]", "HCV-NS5b (Hepatitis C virus genotype 1b)", "inhibition at 1 µM", 86.9),
]
